Hey, just so you know, these numbers are from patent US20220064329A1.

Target: T1, recombinant human activated Factor VII (FVIIa) (human, UniProt P08709 61-212; P08709 213-466, ten glutamate residues of the Gla domain may be gamma-carboxylated)
T1 construct: chains tethered by a disulfide bond; also called Factor VIIa; rFVIIa
T1 sequence 1: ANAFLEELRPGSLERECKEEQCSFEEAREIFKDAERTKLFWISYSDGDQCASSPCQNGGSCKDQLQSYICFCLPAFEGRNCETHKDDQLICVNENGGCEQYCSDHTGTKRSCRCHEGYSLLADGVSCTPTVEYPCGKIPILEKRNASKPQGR
T1 sequence 2: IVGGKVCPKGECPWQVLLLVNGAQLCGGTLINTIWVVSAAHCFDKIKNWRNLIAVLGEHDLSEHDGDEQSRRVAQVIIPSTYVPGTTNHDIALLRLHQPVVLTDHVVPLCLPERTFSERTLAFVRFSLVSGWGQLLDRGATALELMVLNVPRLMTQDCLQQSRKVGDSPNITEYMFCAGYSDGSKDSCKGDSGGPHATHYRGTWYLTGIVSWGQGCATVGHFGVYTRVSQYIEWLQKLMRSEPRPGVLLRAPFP
Experiment: BLI (Fortebio)
EXPERIMENTAL READOUT: pKd
Expect pKd as a plain number equal to -log10 of the molar concentration.

Recorded pKd of VH SEQ ID NO 538 / VL SEQ ID NO 454 (antibody, IgG4, V domains shown, humanized 11F2; IgG4 S228P/kappa) VH: QVQLQESGPGLVEPSQTLSLTCTVSGYSITSDSAWSWIRQPPGKKLEWIGYIQYSGSTNYNPSLKSRVTISRDTSKNQFSLKLSSVTAADTAVYYCARSVNYYGNSFAVGYWGQGTLVTVSS VL: EIVLTQSPATLSLSPGERATLSCRASQGVSDYLHWYQQKPGEAPRLLIKYASQPATGIPARFSGSGSGTDFTLTISSLEPEDFAVYYCQNGHSFPLTFGQGTKLEIK , please.
8.92
